- EXPERIMENT_SUMMARY: Cytotoxicity, CCK8
- Type: cell-based
- TEST_CONDITIONS: human, 293T cells (renal epithelial cells), read-out: cell viability HT293 (293T)
Structures can show the parent of a compound that is named as a salt.
OBSERVED_PROPERTY: viability at 12 h, 100 µM (%)
The figure you give is taken to be in %; do not add the unit.

I am curious: what viability at 12 h, 100 µM value has been reported for CC(C)CNc1ccnc(NCc2csc(-c3ccccc3)n2)n1 ?
89

Moving on to CN(C)c1ccc2c(c1)Sc1cc(N(C)C)ccc1N2 [Compound 33, Leucomethylene blue mesylate]
80
